- assay_system: MT1 (ML1A) (h) (Homo sapiens)
- Construct: host or cells: CHO cells
- Sequence (P48039 whole entry): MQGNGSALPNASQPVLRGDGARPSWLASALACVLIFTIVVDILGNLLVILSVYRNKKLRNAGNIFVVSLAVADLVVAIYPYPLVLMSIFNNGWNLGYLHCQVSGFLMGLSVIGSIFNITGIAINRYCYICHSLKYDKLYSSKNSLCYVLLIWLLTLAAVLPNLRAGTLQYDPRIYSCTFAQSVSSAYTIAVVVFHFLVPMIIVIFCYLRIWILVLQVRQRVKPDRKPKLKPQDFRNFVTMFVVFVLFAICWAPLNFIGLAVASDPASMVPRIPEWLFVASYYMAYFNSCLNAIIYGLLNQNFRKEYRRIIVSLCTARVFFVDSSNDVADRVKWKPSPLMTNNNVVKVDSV
- assay_explanation: Competition assay to measure binding affinity at MT1 receptor
- condition: test ligand 10 μM; [125I]2-iodomelatonin 0.01 nM
quantity_name: MT1, percent of control-specific binding (%)
Give bare numbers, in %.

# count of solved cases: 6
1. COc1cc(CC(C)N)c(OC)cc1Br (stereo not shown) [DOB, reference compound] | −3
2. Cc1ccc(Sc2ccccc2N2CCNCC2)c(C)c1 [vortioxetine, reference compound] | 26
3. CC(Cc1ccc2c(c1)OCCO2)N1CC(NC(=O)OC(C)(C)C)C1 (stereo not shown) | 3
4. CC(Cc1ccc2c(c1)OCO2)N1CC(NC(=O)OC(C)(C)C)C1 (stereo not shown) | 3
5. OCCNCCc1cc2c(cc1Br)OCO2 | 0
6. Brc1cc2c(cc1CCN1CCCC1)OCO2 | 1

Each compound below has a reported value. Please supply its MT1, percent of control-specific binding.
1. CC(Cc1ccc2c(c1)OCCO2)NCc1ccccc1 (stereo not shown)
2. CC(Cc1ccc2c(c1)OCCO2)NC1CCC1 (stereo not shown)
3. CON(C)C(C)Cc1ccc2c(c1)OCO2 (stereo not shown)
4. CC(Cc1ccc2c(c1)OCO2)N1CCOCC1 (stereo not shown)
5. COc1cc(CCN)c(OC)cc1Br [2C-B, reference compound]

1: 3; 2: 1; 3: 6; 4: 0; 5: 86

###

- assay_system: D2 (h) (Homo sapiens, UniProt P14416)
- Construct: host or cells: HEK-293 cells
- Sequence (P14416 whole entry): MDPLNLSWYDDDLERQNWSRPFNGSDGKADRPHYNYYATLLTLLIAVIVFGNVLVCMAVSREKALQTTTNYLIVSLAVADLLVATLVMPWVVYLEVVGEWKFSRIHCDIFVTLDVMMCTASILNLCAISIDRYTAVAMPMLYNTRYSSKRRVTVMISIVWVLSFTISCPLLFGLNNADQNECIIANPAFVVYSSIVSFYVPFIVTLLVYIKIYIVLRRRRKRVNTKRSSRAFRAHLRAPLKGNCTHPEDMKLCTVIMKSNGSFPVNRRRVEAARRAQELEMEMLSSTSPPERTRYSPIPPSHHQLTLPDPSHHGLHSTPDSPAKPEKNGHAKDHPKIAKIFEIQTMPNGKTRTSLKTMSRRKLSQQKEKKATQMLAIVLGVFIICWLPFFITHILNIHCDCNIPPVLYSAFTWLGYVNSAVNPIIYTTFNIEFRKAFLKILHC
- assay_explanation: Competition assay to measure binding affinity at D2L receptor
- condition: test ligand 10 μM; [3H]methylspiperone 0.3 nM
quantity_name: D2, percent of control-specific binding (%)
Answers are plain numbers, in %.

1. CC(Cc1ccc2c(c1)OCCO2)NCc1cc2c(cc1Br)OCCO2 (stereo not drawn) [A(XI)] | 40

Each molecule below has a reported value. Please supply its D2, percent of control-specific binding.
1. CCCOc1c(OC)cc(CCN)cc1OC [proscaline, reference compound]
2. CC(Cc1ccc2c(c1)OCO2)NCc1cc2c(cc1Br)OCO2 (stereo not drawn) [A(VI)]
3. FC1(F)Oc2ccc(CCN3CCCC3)cc2O1 [A(XXVIII)]
4. CC(Cc1ccc2c(c1)OCCO2)NCc1cc2c(cc1Br)OCO2 (stereo not drawn) [A(IX)]
5. CC(Cc1ccc2c(c1)OCCO2)N1CC(NC(=O)OC(C)(C)C)C1 (stereo not drawn) [A(XVI)]
6. COc1cc2c(cc1CC(=O)N1CCCC1)OCO2 [A(XXI)]

−11
39
6
35
21
0

Each molecule below has a reported value. Please supply its D2, percent of control-specific binding.
1. CC(Cc1ccc2c(c1)OCCO2)NC1CCC1 (stereo not drawn) [A(XVII)]
2. COc1cc2c(cc1CNC(C)Cc1ccc3c(c1)OCCO3)OCO2 (stereo not drawn) [A(X)]
3. O=c1n(CCCN2CCN(c3cccc(Cl)c3)CC2)nc2ccccn12 [Trazodone, reference compound]
4. COc1cc(CCN)c(OC)cc1Br [2C-B, reference compound]
5. CC(NC(C)(C)C)C(=O)c1cccc(Cl)c1 (stereo not drawn) [Bupropion, reference compound]
6. NCCc1c[nH]c2ccc(O)cc12 [serotonin, reference compound]

1: 2; 2: 13; 3: 61; 4: 42; 5: −5; 6: 15

###

- assay_system: 5-HT1D (r) (Rattus norvegicus, UniProt P28565)
- Construct: host or cells: CHO cells
- Sequence (P28565 whole entry): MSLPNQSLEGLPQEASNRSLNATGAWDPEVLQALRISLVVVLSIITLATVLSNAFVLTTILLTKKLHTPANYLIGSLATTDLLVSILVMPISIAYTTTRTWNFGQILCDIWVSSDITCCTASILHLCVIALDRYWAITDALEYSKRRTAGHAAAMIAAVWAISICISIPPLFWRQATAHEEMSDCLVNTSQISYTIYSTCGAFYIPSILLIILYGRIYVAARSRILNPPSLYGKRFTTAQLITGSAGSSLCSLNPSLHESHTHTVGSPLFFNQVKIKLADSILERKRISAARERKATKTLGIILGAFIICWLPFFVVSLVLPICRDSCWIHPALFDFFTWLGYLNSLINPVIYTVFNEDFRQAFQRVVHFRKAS
- assay_explanation: Competition assay to measure binding affinity at 5-HT1D receptor
- condition: test ligand 10 μM; [3H]serotonin 1 nM
For each record, write down the corresponding HT1D, percent of control-specific binding.

# count of solved cases: 2
1) Brc1cc2c(cc1CCN1CCCC1)OCO2 | 30%
2) CC(Cc1ccc2c(c1)OCCO2)NCc1ccc2c(c1)OCO2 (stereo not drawn) | 24%

Look up HT1D, percent of control-specific binding of NCCc1c[nH]c2ccc(O)cc12 [serotonin, reference compound] and report it. 101%

###

- assay_system: 5-HT1A receptor (Homo sapiens, UniProt P08908)
- Construct: purchased Perkin Elmer 6110501400UA
- assay_explanation: 5-HT1A receptor radioligand competition assay (SPA)
- Assay type: binding
- condition: competition with 0.5 nM 8-hydroxy-DPAT [3H]; test compound 3 nM to 1 mM; read-out: 5-HT1A, Ki
quantity_name: pKi
Numbers only, as −log10 of the molar value.

# count of solved cases: 8
1) O=C(Cc1cc2c(cc1Br)OCO2)NCCO | 3.23
2) N#CC(Cc1ccc2c(c1)OCO2)NC1CCC1 (centres unmarked) | 3.91
3) COc1cc(CCN)c(OC)cc1Br [2C-B, reference compound] | 6.70
4) c1cc2c(cc1CCN1CCOCC1)OCO2 | 4.62
5) CC(Cc1ccc2c(c1)OCO2)NN(C)C (centres unmarked) | 4.71
6) COc1cc2c(cc1CCN1CCCC1)OCO2 | 7.34
7) OCCNCCc1cc2c(cc1Br)OCO2 | 6.53
8) FC1(F)Oc2ccc(CCN3CCCC3)cc2O1 | 5.70

Each compound below has a reported value. Please supply its pKi.
1. CC(Cc1ccc2c(c1)OCCO2)N1CC(NC(=O)OC(C)(C)C)C1 (centres unmarked)
2. CCOc1c(OC)cc(CCN)cc1OC

[5.85, 4.91]

###

- assay_system: UniProt P28223
- Sequence (P28223 whole entry): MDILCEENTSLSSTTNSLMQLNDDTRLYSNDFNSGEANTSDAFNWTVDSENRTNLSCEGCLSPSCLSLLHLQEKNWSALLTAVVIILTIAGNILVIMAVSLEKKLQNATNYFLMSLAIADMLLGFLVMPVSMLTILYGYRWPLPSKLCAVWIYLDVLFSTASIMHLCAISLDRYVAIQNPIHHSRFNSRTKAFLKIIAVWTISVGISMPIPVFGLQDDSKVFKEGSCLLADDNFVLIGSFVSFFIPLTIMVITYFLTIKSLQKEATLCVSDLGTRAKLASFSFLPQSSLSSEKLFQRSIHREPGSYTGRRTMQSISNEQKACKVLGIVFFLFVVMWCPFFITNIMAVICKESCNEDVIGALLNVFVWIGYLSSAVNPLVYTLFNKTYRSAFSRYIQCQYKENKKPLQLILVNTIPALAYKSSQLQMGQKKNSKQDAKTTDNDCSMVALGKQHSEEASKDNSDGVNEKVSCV
- assay_explanation: 5-HT2A receptor radioligand competition assay (SPA)
quantity_name: log10 Ki (log10 of the value in µM)
All values: base-10 log of Ki in µM.

# count of solved cases: 3
1) c1cc2c(cc1CCN1CCOCC1)OCO2 | 0.78
2) CC(Cc1ccc2c(c1)OCO2)NC1CCC1 (centres unmarked) | 2.71
3) Brc1cc2c(cc1CCN1CCCC1)OCO2 | 0.88

Each molecule below has a reported value. Please supply its log10 Ki.
1. COc1cc2c(cc1CC(=O)N1CCCC1)OCO2
2. N#CC(Cc1ccc2c(c1)OCO2)NC1CCC1 (centres unmarked)

2.53
1.62

###

- assay_system: 5-HT1A receptor (Homo sapiens, UniProt P08908)
- Construct: purchased Perkin Elmer 6110501400UA
- Sequence (P08908 1-422): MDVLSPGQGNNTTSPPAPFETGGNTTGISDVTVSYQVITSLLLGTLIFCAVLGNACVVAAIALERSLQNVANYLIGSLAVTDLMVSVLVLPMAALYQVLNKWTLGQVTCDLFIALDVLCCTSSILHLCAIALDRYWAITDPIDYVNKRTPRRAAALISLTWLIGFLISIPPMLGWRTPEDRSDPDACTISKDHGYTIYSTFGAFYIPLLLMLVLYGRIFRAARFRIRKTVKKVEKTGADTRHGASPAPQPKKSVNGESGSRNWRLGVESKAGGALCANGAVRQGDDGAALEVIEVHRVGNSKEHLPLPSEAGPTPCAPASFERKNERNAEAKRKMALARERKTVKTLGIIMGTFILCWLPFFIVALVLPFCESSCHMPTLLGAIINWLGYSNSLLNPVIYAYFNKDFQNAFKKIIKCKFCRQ
- assay_explanation: Functional 5-HT1A receptor cAMP assay in CHO-K1/5-HT1A/Gα15 cells
- Type: cell-based
pEC50: −log10 of the molar value.
Response key: label 1 means pEC50 >= 5; label 0 means pEC50 < 5.

1. Brc1cc2c(cc1CCN1CCCC1)OCO2 | label 1
2. c1cc(CCN2CCCC2)c2c(c1)OCO2 | label 1
3. COc1cc2c(cc1CCNCCO)OCO2 | label 0
4. COc1cc2c(cc1CCN1CCCC1)OCO2 | label 1

Query compound follows.
Would you say "FC1(F)Oc2ccc(CCN3CCCC3)cc2O1" shows pEC50 at minimum 5? label 0

###

For each record, write down the corresponding NET, percent of control-specific binding.
- assay_system: NET (h) (Homo sapiens, UniProt P23975)
- Construct: host or cells: CHO cells
- Sequence (P23975 whole entry): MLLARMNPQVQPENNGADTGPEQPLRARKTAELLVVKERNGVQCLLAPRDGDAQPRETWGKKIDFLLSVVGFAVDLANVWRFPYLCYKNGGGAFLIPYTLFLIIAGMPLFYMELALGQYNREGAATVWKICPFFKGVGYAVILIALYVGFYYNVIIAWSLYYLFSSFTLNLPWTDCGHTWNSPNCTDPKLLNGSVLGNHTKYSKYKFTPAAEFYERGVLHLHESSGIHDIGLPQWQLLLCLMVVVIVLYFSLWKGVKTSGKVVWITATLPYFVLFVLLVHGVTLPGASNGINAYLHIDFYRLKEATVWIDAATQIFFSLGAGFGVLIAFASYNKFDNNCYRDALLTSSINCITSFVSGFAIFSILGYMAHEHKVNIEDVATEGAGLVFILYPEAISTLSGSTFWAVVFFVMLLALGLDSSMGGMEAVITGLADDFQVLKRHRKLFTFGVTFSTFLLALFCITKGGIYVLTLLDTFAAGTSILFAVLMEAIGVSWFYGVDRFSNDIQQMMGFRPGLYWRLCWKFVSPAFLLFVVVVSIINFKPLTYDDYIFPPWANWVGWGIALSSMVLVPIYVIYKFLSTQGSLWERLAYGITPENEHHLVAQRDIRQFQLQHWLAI
- assay_explanation: Competition assay to measure binding affinity at norepinephrine transporter (NET)
- condition: test ligand 10 μM; [3H]nisoxetine 1 nM
One number for each entry, in %.

1. COc1cc2c(cc1CCN1CCCC1)OCO2 [A(XIV)] | 0
2. O=C(Cc1cc2c(cc1Br)OCO2)NCCO [A(XIX)] | 0

Each compound below has a reported value. Please supply its NET, percent of control-specific binding.
1. Cc1ccc(Sc2ccccc2N2CCNCC2)c(C)c1 [vortioxetine, reference compound]
2. COc1cc2c(cc1CNC(C)Cc1ccc3c(c1)OCO3)OCO2 (stereo not shown) [A(V)]
3. CC(Cc1ccc2c(c1)OCCO2)N1CC(NC(=O)OC(C)(C)C)C1 (stereo not shown) [A(XVI)]
4. COc1cc(CCN)c(OC)cc1Br [2C-B, reference compound]
5. NCCc1c[nH]c2ccc(O)cc12 [serotonin, reference compound]
6. O=c1n(CCCN2CCN(c3cccc(Cl)c3)CC2)nc2ccccn12 [Trazodone, reference compound]

[99, 83, 24, 13, "−3", "−1"]

Each compound below has a reported value. Please supply its NET, percent of control-specific binding.
1. COc1cc2c(cc1CNC(C)Cc1ccc3c(c1)OCCO3)OCO2 (stereo not shown) [A(X)]
2. FC1(F)Oc2ccc(CCN3CCCC3)cc2O1 [A(XXVIII)]

1: 49; 2: 0
